Reference source: paper PMC5681660

- TESTED TARGET: human NTCP (Homo sapiens, UniProt Q14973)
- Sequence (Q14973 whole entry): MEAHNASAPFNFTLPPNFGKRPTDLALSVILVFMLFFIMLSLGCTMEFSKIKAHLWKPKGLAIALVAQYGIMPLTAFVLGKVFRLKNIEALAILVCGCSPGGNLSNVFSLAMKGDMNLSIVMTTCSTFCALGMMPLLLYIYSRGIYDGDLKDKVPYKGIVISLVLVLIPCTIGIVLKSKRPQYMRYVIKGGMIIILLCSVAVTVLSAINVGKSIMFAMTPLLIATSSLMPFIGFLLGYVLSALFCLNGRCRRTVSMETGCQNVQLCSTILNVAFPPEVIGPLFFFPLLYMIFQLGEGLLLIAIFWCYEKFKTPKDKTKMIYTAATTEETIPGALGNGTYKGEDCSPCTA
- RUN DESCRIPTION: Screening fluorescent competitive Myrcludex B-FITC binding assay (96-well, 10 µM drug)
- CONDITION INFO: Prestwick library screen, 10 µM drug; B-score of Myrcludex B-FITC binding
Counter-ions that a name gives are not always drawn. Non-standard residues stand in square brackets, D forms with d. Residues, ends and D or L forms follow the SMILES beside them. pGlu = O=C1CC[C@@H](C(=O)O)N1; Thz = O=C(O)[C@@H]1CSCN1
QUANTITY: B-score binding assay
Give bare numbers.

molecule="CCN(CC)CCNC(C(=O)OCCC(C)C)c1ccccc1.Cl.Cl (centres unmarked) [Camylofine chlorhydrate]" result_number=0.138
molecule="CC(C(=O)O)c1ccc(N2Cc3ccccc3C2=O)cc1 (centres unmarked) [Indoprofen]" result_number=0.209
molecule="O=C1[C@H]2CCCC[C@H]2C(=O)N1CCCCN1CCN(c2nsc3ccccc23)CC1 [Perospirone]" result_number=1.438
molecule="Fc1ccc([C@@H]2CCNC[C@H]2COc2ccc3c(c2)OCO3)cc1 [Paroxetine Hydrochloride]" result_number=1.07
molecule="Cc1ncc([N+](=O)[O-])n1CCO [Metronidazole]" result_number=0
molecule="N=C(N)N1CCc2ccccc2C1 [Debrisoquin sulfate]" result_number=0.059
molecule="CC(C)(N)Cc1ccccc1.Cl [Phentermine hydrochloride]" result_number=0.892
molecule="Nc1nc(/C(=C/CC(=O)O)C(=O)N[C@@H]2C(=O)N3C(C(=O)O)=CCS[C@H]23)cs1 [Ceftibuten]" result_number=1.253

Give me B-score binding assay for each of these molecules, listed below.
1. CCOC(=O)[C@H](CCc1ccccc1)N[C@H]1CCc2ccccc2N(CC(=O)O)C1=O [Benazepril HCl]
2. CCN(CC)CCOCCOC(=O)C1(c2ccccc2)CCCC1 [Carbetapentane citrate]
3. O=C1CC[C@@H](C(=O)N2CSC[C@H]2C(=O)O)N1 [Pidotimod] ([pGlu]-[Thz]-OH)
4. CCOC(=O)C1=C(C)NC(C)=C(C(=O)OCC)C1c1ccccc1/C=C/C(=O)OC(C)(C)C [Lacidipine]
5. CC(C)NCC(O)c1ccc(O)c(O)c1.Cl (single isomer, unassigned; (-)) [(-)-Isoproterenol hydrochloride]
6. CC(CN1c2ccccc2Sc2ccccc21)N(C)C (centres unmarked) [Promethazine hydrochloride]
7. CCN(CC)C(=O)C1(c2ccccc2)CC1CN.Cl (centres unmarked) [Milnacipran hydrochloride]
8. O=C1CCC(N2C(=O)c3ccccc3C2=O)C(=O)N1 (centres unmarked) [Thalidomide]

Solution:
1: 0.109; 2: 1.7; 3: 0.063; 4: 1.528; 5: 0.852; 6: 1.811; 7: 0.152; 8: 2.398

Give me B-score binding assay for each of these molecules, listed below.
1. CC(C)NCC(O)c1ccc(NS(C)(=O)=O)cc1 (centres unmarked) [Sotalol hydrochloride]
2. COc1cccc(N(C)C(=S)Oc2ccc3c(c2)CCCC3)n1 [Liranaftate]
3. C[C@H]1C[C@@H]2[C@H]([C@@H](O)C[C@@]3(C)[C@H]2CC[C@]3(O)C(=O)CO)[C@@]2(C)C=CC(=O)C=C12 [Methylprednisolone, 6-alpha]
4. COc1cc2c(cc1OC)C(C)NCC2.Cl (centres unmarked)

Solution:
0.649
0.615
0.779
0.343

Give me B-score binding assay for each of these molecules, listed below.
1. OC[C@H]1O[C@@H](Oc2ccc(O)cc2)[C@H](O)[C@@H](O)[C@@H]1O [Arbutin]
2. CCn1cc(C(=O)O)c(=O)c2cnc(N3CCCC3)nc21 [Piromidic acid]
3. C#C[C@]1(O)CC[C@H]2[C@@H]3[C@H](C)CC4=C(CCC(=O)C4)[C@H]3CC[C@@]21C [Tibolone]
4. CCOC(=O)C(C)(C)Oc1ccc(Cl)cc1 [Clofibrate]
5. CC(C)N(CCC(C(N)=O)(c1ccccc1)c1ccccn1)C(C)C (centres unmarked) [Disopyramide]
6. CC(=O)O[C@]1(C(C)=O)CC[C@H]2[C@@H]3C=C(C)C4=CC(=O)CC[C@]4(C)[C@H]3CC[C@@]21C [Megestrol acetate]
7. CC(=O)CC(c1ccc([N+](=O)[O-])cc1)c1c(O)c2ccccc2oc1=O (centres unmarked) [Acenocoumarol]

Solution:
1. 0.372
2. 0.041
3. 0.535
4. 0.712
5. 2.245
6. 0.319
7. 0.383
